Test: Inhibition of HCV genotype 1b NS5B RNA dependent RNA polymerase assessed as inorganic pyrophosphate generation by luminometry
Set-up: species or system Hepatitis C virus subtype 1b
value.kind: IC50

**Q:** Please look up its IC50: O=C(NCCCc1ccccc1)c1nc2ccccc2c(=O)n1O
**A:** 8.77 µM
